The measured values listed here are drawn from EPA's ToxValDB 9.5.

System: Rattus norvegicus
Conditions: uterotrophic; duration: 3 days; oral; Active
VALUE TYPE: LEL

COMPOUND	LEL
C[C@]12CC[C@@H]3c4ccc(O)cc4CC[C@H]3[C@@H]1C[C@@H](O)[C@@H]2O	0.09 mg/kg-day
CC(C)CCCCCCc1ccc(O)cc1	190 mg/kg-day
C#C[C@@]1(OC(=O)CC)C[C@@H]2CC[C@@H]3[C@H](CC[C@@]4(C)[C@H]3CC[C@]4(C#C)OC(=O)CC)[C@@]2(C)C1	0.0025 mg/day
C[C@H]1CCCC(=O)CCC/C=C/c2cc(O)cc(O)c2C(=O)O1	0.18 mg/day
C[C@H]1CCC[C@H](O)CCC/C=C/c2cc(O)cc(O)c2C(=O)O1	0.01 mg/day
C[C@H]1CCCC(=O)CCCCCc2cc(O)cc(O)c2C(=O)O1	0.18 mg/day

(Q) Entry O=C(OCc1ccccc1)c1ccc(O)cc1 [Benzyl 4-hydroxybenzoate] has what LEL?
(A) 0.16 mg/kg-day
